molecular target: T1, recombinant BACE1 (BACE1 extracellular domain, R&D Systems Cat#931-AS) (UniProt P56817 22-457); experiment: SPR Biacore
T1 construct: extracellular domain; also called BACE1 extracellular domain protein
T1 sequence (P56817 22-457): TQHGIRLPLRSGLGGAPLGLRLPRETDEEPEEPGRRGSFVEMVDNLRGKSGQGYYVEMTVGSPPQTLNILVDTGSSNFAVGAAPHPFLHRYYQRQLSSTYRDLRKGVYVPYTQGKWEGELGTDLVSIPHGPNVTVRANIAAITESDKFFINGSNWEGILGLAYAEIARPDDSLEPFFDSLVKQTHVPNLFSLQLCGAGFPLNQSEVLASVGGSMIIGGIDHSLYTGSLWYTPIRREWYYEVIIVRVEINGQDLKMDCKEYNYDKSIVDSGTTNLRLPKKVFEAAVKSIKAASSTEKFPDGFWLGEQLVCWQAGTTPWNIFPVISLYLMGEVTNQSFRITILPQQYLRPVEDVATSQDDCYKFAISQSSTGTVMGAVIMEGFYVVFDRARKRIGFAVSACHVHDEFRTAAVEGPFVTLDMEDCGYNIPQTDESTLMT
// reported kon for each item listed
Enter your answer as a number in M⁻¹ s⁻¹; do not include the unit.

binder="2H8.36 (antibody, human IgG1, V domains shown, human IgG1/kappa; also called 2H8_HCvar6 + 2H8_LCvar6) VH: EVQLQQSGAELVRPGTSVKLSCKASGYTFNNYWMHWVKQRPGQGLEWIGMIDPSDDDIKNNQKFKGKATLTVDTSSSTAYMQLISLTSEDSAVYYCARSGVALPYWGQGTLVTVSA VL: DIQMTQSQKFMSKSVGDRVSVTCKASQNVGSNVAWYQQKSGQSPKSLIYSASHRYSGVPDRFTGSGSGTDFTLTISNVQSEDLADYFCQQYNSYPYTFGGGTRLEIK" result=11600
binder="2H8.34 (antibody, human IgG1, V domains shown, human IgG1/kappa; also called 2H8_HCvar4 + 2H8_LCvar6) VH: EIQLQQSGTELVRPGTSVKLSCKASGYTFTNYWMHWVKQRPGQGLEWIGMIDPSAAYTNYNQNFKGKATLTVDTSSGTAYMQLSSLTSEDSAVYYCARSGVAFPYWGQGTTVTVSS VL: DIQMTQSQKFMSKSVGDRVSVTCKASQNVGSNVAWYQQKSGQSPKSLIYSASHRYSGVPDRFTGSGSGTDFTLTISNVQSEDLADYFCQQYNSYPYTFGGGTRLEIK" result=16700
binder="2H8.24 (antibody, human IgG1, V domains shown, human IgG1/kappa; also called 2H8_HCvar6 + 2H8_LCvar4) VH: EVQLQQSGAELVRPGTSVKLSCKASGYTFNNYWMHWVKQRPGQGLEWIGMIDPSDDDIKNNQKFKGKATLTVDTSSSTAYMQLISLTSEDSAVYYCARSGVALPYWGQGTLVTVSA VL: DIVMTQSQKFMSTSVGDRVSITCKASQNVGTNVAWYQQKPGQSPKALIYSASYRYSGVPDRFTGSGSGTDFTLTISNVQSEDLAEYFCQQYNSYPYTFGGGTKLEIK" result=13300
binder="2H8.40 (antibody, human IgG1, V domains shown, human IgG1/kappa; also called 2H8_HCvar4 + 2H8_LCvar7) VH: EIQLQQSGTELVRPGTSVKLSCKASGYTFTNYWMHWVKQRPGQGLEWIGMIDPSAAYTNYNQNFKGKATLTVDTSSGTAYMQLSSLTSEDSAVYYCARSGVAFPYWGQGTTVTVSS VL: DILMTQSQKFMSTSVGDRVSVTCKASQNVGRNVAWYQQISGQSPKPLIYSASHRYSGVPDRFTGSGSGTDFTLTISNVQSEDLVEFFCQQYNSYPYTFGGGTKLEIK" result=23900

Now consider the entry below.
# query: kon of entry 2H8.15 (antibody, human IgG1, V domains shown, human IgG1/kappa; also called 2H8_HCvar3 + 2H8_LCvar3) VH: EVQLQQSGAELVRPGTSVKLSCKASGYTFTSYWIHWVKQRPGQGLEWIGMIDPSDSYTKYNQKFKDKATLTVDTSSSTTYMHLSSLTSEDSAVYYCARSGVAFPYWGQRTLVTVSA VL: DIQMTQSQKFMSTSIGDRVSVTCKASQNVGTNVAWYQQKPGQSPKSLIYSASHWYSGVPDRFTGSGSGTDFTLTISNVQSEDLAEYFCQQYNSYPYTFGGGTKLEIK
12200
